List of 8OG:A repair function score values.
B1: library; numbered along this chain (parent)
chain: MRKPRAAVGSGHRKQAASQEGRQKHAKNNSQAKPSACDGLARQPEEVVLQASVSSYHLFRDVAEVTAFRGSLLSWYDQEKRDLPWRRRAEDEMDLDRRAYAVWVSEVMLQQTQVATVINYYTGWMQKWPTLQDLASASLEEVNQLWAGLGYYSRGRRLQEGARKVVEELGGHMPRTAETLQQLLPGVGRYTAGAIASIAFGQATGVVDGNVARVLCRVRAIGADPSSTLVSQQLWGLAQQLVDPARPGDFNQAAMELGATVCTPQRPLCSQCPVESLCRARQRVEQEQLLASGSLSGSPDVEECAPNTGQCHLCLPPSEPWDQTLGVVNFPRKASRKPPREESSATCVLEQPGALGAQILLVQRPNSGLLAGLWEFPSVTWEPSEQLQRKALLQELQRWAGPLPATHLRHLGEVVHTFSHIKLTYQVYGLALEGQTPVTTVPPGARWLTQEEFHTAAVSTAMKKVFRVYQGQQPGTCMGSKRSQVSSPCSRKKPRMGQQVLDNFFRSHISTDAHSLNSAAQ

# Variants of: B1
# methodSummary: 8OG:A repair function score (normalized; synonymous = 0, nonsense = -1) (normalized log-likelihood score); higher = more repair activity (WT-like);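 note: cells sorted at 72 h after reporter transfection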
# conditionLabel: with 8OG:A DNA repair reporter (GFP) in HEK-293 MUTYH KO cells
quantityMeasured: 8OG:A repair function score

{"mutant": "G429C", "reportedMeasurement": 0.227}
{"mutant": "W75P", "reportedMeasurement": -3.8}
{"mutant": "G479E", "reportedMeasurement": 0.0225}
{"mutant": "L215C", "reportedMeasurement": -0.768}
{"mutant": "R398W", "reportedMeasurement": -0.973}
{"mutant": "G70Q", "reportedMeasurement": -0.528}
{"mutant": "T417G", "reportedMeasurement": -0.208}
{"mutant": "E385V", "reportedMeasurement": -0.0807}
{"mutant": "K3G", "reportedMeasurement": 0.00287}
{"mutant": "D502T", "reportedMeasurement": 0.00564}
{"mutant": "Q282F", "reportedMeasurement": -0.021}
{"mutant": "D82A", "reportedMeasurement": -0.0548}
{"mutant": "R42N", "reportedMeasurement": 0.0413}
{"mutant": "V458K", "reportedMeasurement": -0.57}
{"mutant": "T112K", "reportedMeasurement": -1.01}
{"mutant": "Y56V", "reportedMeasurement": -0.015}
{"mutant": "T449D", "reportedMeasurement": -0.211}
{"mutant": "R266D", "reportedMeasurement": -0.269}
{"mutant": "D300T", "reportedMeasurement": -0.109}
